Data origin, for the record: paper PMC2409895

# protocolText: Protein binding
# Type: in vitro ADME
# conditionContext: mouse, plasma; used to calculate free Cmax in mice

compound	fraction unbound
CCS(=O)(=O)c1ccc(OC)c(Nc2nccc(N(C)c3ccc4c(C)n[nH]c4c3)n2)c1 [GW654652]	0.01

* * *

# targetSystem: human VEGFR kinase 3 (Homo sapiens, UniProt P35916)
# Construct: GST-fusion protein encoding the catalytic carboxyl-terminus of human VEGFR kinase 1, 2, or 3; made in house; host or cells: baculovirus expression system
# Sequence (P35916 845-1173 limits assumed): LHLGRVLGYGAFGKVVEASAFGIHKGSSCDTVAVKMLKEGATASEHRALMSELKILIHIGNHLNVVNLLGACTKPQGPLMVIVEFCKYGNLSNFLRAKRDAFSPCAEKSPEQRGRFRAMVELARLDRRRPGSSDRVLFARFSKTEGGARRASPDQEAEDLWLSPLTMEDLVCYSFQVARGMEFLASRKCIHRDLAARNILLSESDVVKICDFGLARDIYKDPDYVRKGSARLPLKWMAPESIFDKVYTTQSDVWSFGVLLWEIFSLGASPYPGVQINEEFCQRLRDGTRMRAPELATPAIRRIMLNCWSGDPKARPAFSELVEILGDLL
# protocolText: VEGFR3 kinase assay (HTRF)
# Format: biochemical
# conditionContext: mean±s.e.
pIC50: −log10 of the molar value.

compound	pIC50
CCS(=O)(=O)c1ccc(OC)c(Nc2nccc(N(C)c3ccc4c(C)n[nH]c4c3)n2)c1 [GW654652]	8.60

* * *

# targetSystem: ErbB2 (Homo sapiens)
# Construct: Each kinase assay was conducted using purified recombinant catalytic domain of the enzyme
# Sequence (P04626 720-987 limits assumed, species assumed): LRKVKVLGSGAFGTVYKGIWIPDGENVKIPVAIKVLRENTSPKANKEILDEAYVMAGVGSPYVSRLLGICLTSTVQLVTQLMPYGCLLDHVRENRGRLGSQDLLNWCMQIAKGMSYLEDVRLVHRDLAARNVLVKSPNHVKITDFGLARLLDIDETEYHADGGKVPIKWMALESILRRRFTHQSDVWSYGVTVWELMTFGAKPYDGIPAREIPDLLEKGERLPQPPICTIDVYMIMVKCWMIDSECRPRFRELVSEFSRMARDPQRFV
# protocolText: ErbB2 kinase assay (scintillation proximity)
# conditionContext: mean±s.e.
pIC50: −log10 of the molar value.
readoutType: pIC50

compound	targetSystem	readoutType	valueReported
CCS(=O)(=O)c1ccc(OC)c(Nc2nccc(N(C)c3ccc4c(C)n[nH]c4c3)n2)c1	ErbB2 (Homo sapiens)	pIC50	4.94

* * *

# targetSystem: c-Fms (Homo sapiens)
# Construct: Each kinase assay was conducted using purified recombinant catalytic domain of the enzyme
# Sequence (P07333 582-910 limits assumed): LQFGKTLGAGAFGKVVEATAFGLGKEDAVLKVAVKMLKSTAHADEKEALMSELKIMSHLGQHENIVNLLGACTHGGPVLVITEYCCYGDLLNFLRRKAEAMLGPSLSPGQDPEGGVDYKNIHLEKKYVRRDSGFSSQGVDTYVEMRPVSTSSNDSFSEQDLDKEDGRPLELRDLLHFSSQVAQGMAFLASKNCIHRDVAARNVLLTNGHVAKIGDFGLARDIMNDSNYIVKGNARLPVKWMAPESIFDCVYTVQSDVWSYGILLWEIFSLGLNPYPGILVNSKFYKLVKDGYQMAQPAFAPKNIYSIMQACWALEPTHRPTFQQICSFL
# protocolText: c-Fms kinase assay (HTRF)
# conditionContext: mean±s.e.
pIC50: −log10 of the molar value.
readoutType: pIC50

compound	valueReported
CCS(=O)(=O)c1ccc(OC)c(Nc2nccc(N(C)c3ccc4c(C)n[nH]c4c3)n2)c1 [GW654652]	6.28

* * *

# targetSystem: SRC (Homo sapiens)
# Construct: Each kinase assay was conducted using purified recombinant catalytic domain of the enzyme
# Sequence (P12931 270-523 limits assumed, species assumed): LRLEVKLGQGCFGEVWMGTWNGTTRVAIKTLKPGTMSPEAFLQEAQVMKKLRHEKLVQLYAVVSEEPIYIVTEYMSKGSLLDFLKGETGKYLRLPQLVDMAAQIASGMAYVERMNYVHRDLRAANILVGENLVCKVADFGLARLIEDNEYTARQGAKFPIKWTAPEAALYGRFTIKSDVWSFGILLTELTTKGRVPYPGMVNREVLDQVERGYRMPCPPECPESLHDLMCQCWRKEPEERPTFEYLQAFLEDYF
# protocolText: SRC kinase assay (HTRF)
# conditionContext: mean±s.e.
readoutType: IC50 (nM)

compound	readoutType	valueReported
CCS(=O)(=O)c1ccc(OC)c(Nc2nccc(N(C)c3ccc4c(C)n[nH]c4c3)n2)c1 [GW654652]	IC50	350

* * *

# targetSystem: CDK2 (Homo sapiens)
# Construct: Each kinase assay was conducted using purified recombinant catalytic domain of the enzyme
# protocolText: CDK2 kinase assay (scintillation proximity)
pIC50: −log10 of the molar value.
readoutType: pIC50

compound	targetSystem	readoutType	valueReported
CCS(=O)(=O)c1ccc(OC)c(Nc2nccc(N(C)c3ccc4c(C)n[nH]c4c3)n2)c1	CDK2 (Homo sapiens)	pIC50	< 4.70

* * *

# targetSystem: Eph-B4 (Homo sapiens)
# Construct: Each kinase assay was conducted using purified recombinant catalytic domain of the enzyme
# Sequence (P54760 615-899 limits assumed, species assumed): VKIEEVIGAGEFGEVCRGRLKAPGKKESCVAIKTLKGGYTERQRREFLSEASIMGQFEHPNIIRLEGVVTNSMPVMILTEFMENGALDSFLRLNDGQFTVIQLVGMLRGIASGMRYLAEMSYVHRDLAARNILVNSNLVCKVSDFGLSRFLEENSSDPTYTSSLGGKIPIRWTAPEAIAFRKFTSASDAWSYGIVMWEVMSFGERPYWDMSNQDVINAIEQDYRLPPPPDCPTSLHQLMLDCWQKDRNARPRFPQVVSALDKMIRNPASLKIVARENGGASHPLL
# protocolText: Eph-B4 kinase assay (scintillation proximity)
# conditionContext: mean±s.e.
readoutType: IC50 (nM)

compound	targetSystem	valueReported
CCS(=O)(=O)c1ccc(OC)c(Nc2nccc(N(C)c3ccc4c(C)n[nH]c4c3)n2)c1	Eph-B4 (Homo sapiens)	460

* * *

# targetSystem: EGFR (Homo sapiens)
# Construct: Each kinase assay was conducted using purified recombinant catalytic domain of the enzyme
# Sequence (P00533 712-979 limits assumed, species assumed): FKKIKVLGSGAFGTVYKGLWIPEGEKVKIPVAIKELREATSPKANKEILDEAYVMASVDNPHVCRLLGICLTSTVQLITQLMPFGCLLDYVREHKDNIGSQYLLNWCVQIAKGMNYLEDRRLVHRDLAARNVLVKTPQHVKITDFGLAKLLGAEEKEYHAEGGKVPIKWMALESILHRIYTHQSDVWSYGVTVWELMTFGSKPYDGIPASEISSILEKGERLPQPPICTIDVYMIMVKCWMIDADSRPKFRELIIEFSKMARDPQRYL
# protocolText: EGFR kinase assay (scintillation proximity)
# conditionContext: mean±s.e.
pIC50: −log10 of the molar value.
readoutType: pIC50

compound	readoutType	valueReported
CCS(=O)(=O)c1ccc(OC)c(Nc2nccc(N(C)c3ccc4c(C)n[nH]c4c3)n2)c1	pIC50	5.87

* * *

# targetSystem: CDK4 (Homo sapiens)
# Construct: Each kinase assay was conducted using purified recombinant catalytic domain of the enzyme
# Sequence (P11802 6-295 limits assumed, species assumed): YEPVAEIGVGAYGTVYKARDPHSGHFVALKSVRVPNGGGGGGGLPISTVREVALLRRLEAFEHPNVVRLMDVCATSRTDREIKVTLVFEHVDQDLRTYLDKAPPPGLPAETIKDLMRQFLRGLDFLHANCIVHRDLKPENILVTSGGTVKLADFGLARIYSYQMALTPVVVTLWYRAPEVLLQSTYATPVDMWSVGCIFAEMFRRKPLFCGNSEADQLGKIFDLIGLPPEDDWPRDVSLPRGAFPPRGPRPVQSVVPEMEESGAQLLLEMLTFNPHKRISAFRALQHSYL
# Sequence (P24385 whole entry partner, species assumed, the tested form may be a part): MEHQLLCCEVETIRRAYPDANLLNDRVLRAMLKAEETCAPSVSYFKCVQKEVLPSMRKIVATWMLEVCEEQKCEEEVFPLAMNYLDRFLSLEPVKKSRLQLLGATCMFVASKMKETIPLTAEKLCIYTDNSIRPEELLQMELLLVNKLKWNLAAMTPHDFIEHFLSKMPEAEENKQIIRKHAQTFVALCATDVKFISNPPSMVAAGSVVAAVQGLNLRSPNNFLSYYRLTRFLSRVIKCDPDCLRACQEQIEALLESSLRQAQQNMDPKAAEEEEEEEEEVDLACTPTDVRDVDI
# protocolText: CDK4 kinase assay (scintillation proximity)

compound	targetSystem	IC50
CCS(=O)(=O)c1ccc(OC)c(Nc2nccc(N(C)c3ccc4c(C)n[nH]c4c3)n2)c1	CDK4 (Homo sapiens)	> 20 µM

* * *

# targetSystem: Tie2 (Homo sapiens)
# Construct: Each kinase assay was conducted using purified recombinant catalytic domain of the enzyme
# Sequence (Q02763 824-1096 limits assumed, species assumed): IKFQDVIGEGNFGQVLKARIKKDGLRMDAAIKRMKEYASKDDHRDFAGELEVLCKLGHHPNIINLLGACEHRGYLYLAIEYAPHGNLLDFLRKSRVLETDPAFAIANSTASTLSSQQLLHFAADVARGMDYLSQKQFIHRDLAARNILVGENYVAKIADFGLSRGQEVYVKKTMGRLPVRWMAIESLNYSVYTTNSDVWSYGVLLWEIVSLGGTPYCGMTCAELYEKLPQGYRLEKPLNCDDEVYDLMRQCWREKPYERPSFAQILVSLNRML
# protocolText: Tie-2 kinase assay (HTRF)
# conditionContext: mean±s.e.
readoutType: IC50 (nM)

compound	targetSystem	unitSpec	valueReported
CCS(=O)(=O)c1ccc(OC)c(Nc2nccc(N(C)c3ccc4c(C)n[nH]c4c3)n2)c1	Tie2 (Homo sapiens)	nM	320
